target.or.test.system: Mannose-6-phosphate isomerase (Homo sapiens)
assay.text: MPI inhibition at elevated mannose 6-phosphate – biochemical, fluorescence intensity, high mannose 6-phosphate, primary screen (AID 1220)
run.parameters: recombinant PMI enzyme, coupled fluorescence intensity; at 20 µM
In all, about 190,000 compounds went through this assay and about 1,300 (0.68%) were called active. Rule as the data show it: active = inhibition above about 50%; inactive = the rest. This excerpt belongs to a sample that is enriched for actives.
Use one of these outcomes when replying: active, inactive

>>> category_label("O=C(NC(=S)Nc1ccc2c(c1)C(=O)c1ccccc1C2=O)c1ccc(F)cc1")
"inactive"
>>> category_label("Cc1cccnc1NCc1ccc(O)c2ncccc12")
"active"
>>> category_label("C#CCNC(=O)C1=C[C@@H](c2cn(C(C)=O)c3ccccc23)C[C@@H](OCCCCO)O1")
"inactive"
>>> category_label("Cc1sc(/N=C/c2c(O)ccc3ccccc23)c(C#N)c1C")
"inactive"

input: How did this test come out for NC(=O)c1ccc(N2CCN(c3ccc(O)cc3)CC2)c([N+](=O)[O-])c1 ?
output: active

input: How did this test come out for C=C1C(=O)[C@@]23[C@H](O)C[C@@H]4C(C)(C)CC[C@H](O)[C@]4(C)[C@@H]2C[C@H](O)[C@@H]1[C@H]3O ?
output: active

input: How did this test come out for CC12CN3CC(C)(CN(C1)C3c1ccc3ccccc3c1O)C2=O (centres undefined) ?
output: active

input: How did this test come out for Cc1cccc(NC2=C(NC(=O)c3ccccc3)C(=O)c3ccccc3C2=O)c1 ?
output: inactive

input: How did this test come out for Oc1[nH]c2ccccc2c1/C=N/c1nccs1 ?
output: inactive

input: How did this test come out for CCOC(=O)c1c(NCC2CCCO2)c2ccccc2[nH]c1=O (centres undefined) ?
output: inactive

input: How did this test come out for Cc1ccc(O)c(CNc2ccccn2)c1 ?
output: inactive

input: How did this test come out for Cc1ccc(NC2=C(NC(=O)c3ccccc3)C(=O)c3ccccc3C2=O)cc1Cl ?
output: inactive

---

target.or.test.system: Mannose-6-phosphate isomerase (Homo sapiens)
assay.text: MPI inhibition at elevated mannose 6-phosphate – biochemical, fluorescence intensity, high mannose 6-phosphate, primary screen (AID 1220)
run.parameters: recombinant PMI enzyme, coupled fluorescence intensity; at 20 µM; hits give high values
About 1,300 (0.68%) of roughly 190,000 compounds were called active. Only a selection was taken, and actives are over-represented in it overall.
reported.metric: inhibition (%)
Provide the reading as a plain figure in %.

>>> quantitative_result("COc1ccc(N=c2sc3ccccc3n2C)cc1")
0.4

Shifting focus to the compound that follows.
input: Could you please provide reported inhibition for O=C1c2ccccc2-c2nccnc21 ? Thanks!
output: 6.6

---

target.or.test.system: Mannose-6-phosphate isomerase (Homo sapiens) (UniProt P34949)
Sequence (P34949 whole entry, looked up): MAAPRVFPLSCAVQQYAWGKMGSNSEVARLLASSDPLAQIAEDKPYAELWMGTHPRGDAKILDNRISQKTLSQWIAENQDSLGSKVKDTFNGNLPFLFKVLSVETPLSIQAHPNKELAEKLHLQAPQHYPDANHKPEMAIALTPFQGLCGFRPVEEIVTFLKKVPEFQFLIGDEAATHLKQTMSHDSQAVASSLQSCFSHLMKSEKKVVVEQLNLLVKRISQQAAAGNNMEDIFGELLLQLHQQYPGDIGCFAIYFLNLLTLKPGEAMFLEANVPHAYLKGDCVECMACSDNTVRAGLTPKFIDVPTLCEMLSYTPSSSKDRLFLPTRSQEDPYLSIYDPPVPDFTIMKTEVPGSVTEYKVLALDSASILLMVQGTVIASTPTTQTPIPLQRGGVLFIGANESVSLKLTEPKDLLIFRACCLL
assay.text: MPI inhibition at elevated mannose 6-phosphate – biochemical, fluorescence intensity, high mannose 6-phosphate, primary screen (AID 1220)
run.parameters: recombinant PMI enzyme, coupled fluorescence intensity; at 20 µM; hits give high values
In all, about 190,000 compounds went through this assay and about 1,300 (0.68%) were called active. What follows is part of a selection rich in actives, with near analogues and random picks from the rest.
reported.metric: inhibition (%)
Provide the reading as a plain figure in %.

input: Could you please provide reported inhibition for COC(=O)c1oc2ccc(OC)cc2c1N ? Thanks!
output: -2.9

input: Could you please provide reported inhibition for COc1cc(OC)c(OC)cc1CN1CCN(Cc2ccc(SC)cc2)CC1 ? Thanks!
output: 10.2

input: Could you please provide reported inhibition for CCCC1C2CN(C(C)C)CC=C2C(C#N)=C(N)C1(C#N)C#N (configuration not stated) ? Thanks!
output: 60.7

input: Could you please provide reported inhibition for CN1CC=C2C(C#N)=C(N)C(C#N)(C#N)C(CCc3ccccc3)C2C1 (configuration not stated) ? Thanks!
output: 17.3

---

target.or.test.system: Mannose-6-phosphate isomerase (Homo sapiens)
assay.text: MPI inhibition at elevated mannose 6-phosphate – biochemical, fluorescence intensity, high mannose 6-phosphate, primary screen (AID 1220)
run.parameters: recombinant PMI enzyme, coupled fluorescence intensity; at 20 µM; hits give high values
The whole screen tested about 190,000 compounds, of which about 1,300 (0.68%) were called active. The list comes from a sample in which actives are over-represented; it also holds close analogues and randomly drawn compounds.
# Lookup of reported inhibition keyed by entry
Provide the reading as a plain figure in %.

Please review the following examples before continuing.
>>> quantitative_result("CC(=O)c1c(C)[nH]c(C(=O)N2CCc3ccccc3C2)c1C")
12.7
>>> quantitative_result("COc1ccc(CC(=O)Nc2cccc(SC)c2)cc1")
1.7
>>> quantitative_result("CCCC(=O)Nc1ccc(C(N)=O)cc1")
5.2

input: Could you please provide reported inhibition for O=C(NC(c1ccccc1)c1ccccc1)C1(c2cccs2)CCOCC1 ? Thanks!
output: -1.3

input: Could you please provide reported inhibition for CC(C)(C)NCc1cc2ccccc2[nH]c1=O ? Thanks!
output: 6.8

input: Could you please provide reported inhibition for COc1ccc2[nH]c(=O)c(CNc3ccccc3)cc2c1 ? Thanks!
output: 44.2

---

target.or.test.system: Mannose-6-phosphate isomerase (Homo sapiens)
assay.text: MPI inhibition at elevated mannose 6-phosphate – biochemical, fluorescence intensity, high mannose 6-phosphate, primary screen (AID 1220)
run.parameters: recombinant PMI enzyme, coupled fluorescence intensity; at 20 µM
The whole screen tested about 190,000 compounds, of which about 1,300 (0.68%) were called active. Rule as the data show it: active = inhibition above about 50%; inactive = the rest. What follows is part of a selection rich in actives, with near analogues and random picks from the rest.
Use one of these outcomes when replying: yes (active), no (inactive)

See these solved cases before continuing.
>>> category_label("CC(=O)Oc1cc2oc(=O)cc(C)c2cc1OC(C)=O")
"yes"
>>> category_label("COCCNC(=O)Cn1nc(C(F)(F)F)cc1C")
"no"
>>> category_label("C=CCn1c(SCC(N)=O)nnc1-c1cccc(Br)c1")
"no"
>>> category_label("COC(=O)c1ccc(CSc2cc(C)c3cc(C)cc(C)c3n2)o1")
"no"
>>> category_label("CCC(CC)c1nnc(NC(=O)c2c(C)nn(Cc3ccccc3Cl)c2C)s1")
"no"

input: How did this test come out for CC(=O)c1cccc(N2C(=NC(=O)C(C)C)SC3CS(=O)(=O)CC32)c1 (configuration not stated) ?
output: no

input: How did this test come out for COc1ccc(-c2nc(C#N)c(N3CCN(c4cccc(Cl)c4)CC3)o2)cc1OC ?
output: no

input: How did this test come out for CCc1cccc(NC(=O)CS(=O)Cc2nc(-c3ccc(C)cc3)oc2C)c1 (configuration not stated) ?
output: no

input: How did this test come out for Cc1ccc(N=Cc2cc(Cl)cc(Cl)c2O)nc1 ?
output: yes

input: How did this test come out for CCOC(=O)N1CCN(C(=O)Nc2ccc3nccnc3c2)CC1 ?
output: yes

input: How did this test come out for COc1ccc(NC(=S)Nc2ccc3cn[nH]c3c2)cc1 ?
output: no

input: How did this test come out for O=C(Nc1ccc2nc(-c3ccccn3)c(-c3ccccn3)nc2c1)N1CCOCC1 ?
output: yes

input: How did this test come out for COc1cccc(C2=NCCc3cc4c(cc32)OCO4)c1OC ?
output: no

input: How did this test come out for Cc1cc(C=NCCO)c(C)n1-c1cc(Cl)ccc1Cl ?
output: no

input: How did this test come out for COC(=O)Nc1sc2c(c1C(N)=O)CCC(C)C2 (configuration not stated) ?
output: yes

input: How did this test come out for Cc1cccc(N=Cc2[nH]c3ccc(Br)c(Cl)c3c2O)c1 ?
output: no

input: How did this test come out for CCOC(=O)C1CCN(C(=O)Nc2ccc3nccnc3c2)CC1 ?
output: no

input: How did this test come out for Cc1cc(C)cc(NC(=S)Nc2ccc3cn[nH]c3c2)c1 ?
output: no

---

target.or.test.system: Mannose-6-phosphate isomerase (Homo sapiens) (UniProt P34949)
assay.text: MPI inhibition at elevated mannose 6-phosphate – biochemical, fluorescence intensity, high mannose 6-phosphate, primary screen (AID 1220)
run.parameters: recombinant PMI enzyme, coupled fluorescence intensity; at 20 µM
The whole screen tested about 190,000 compounds, of which about 1,300 (0.68%) were called active. Rule as the data show it: active = inhibition above about 50%; inactive = the rest. What follows is part of a selection rich in actives, with near analogues and random picks from the rest.
Use one of these outcomes when replying: true for active, false for inactive

See these solved cases before continuing.
>>> category_label("Cc1cc(C)cc(OCC(=O)OCCN2C(=O)c3ccccc3C2=O)c1")
"false"
>>> category_label("CC(C)CCNC(=O)C(CC(C)C)N(Cc1ccc2c(c1)OCO2)C(=O)c1snc(C(N)=O)c1N (stereo not drawn)")
"true"
>>> category_label("CCCn1cc(S(=O)(=O)CC(=O)Nc2ccc(OC)cc2OC)c2ccccc21")
"true"

Continue with the next molecule.
input: How did this test come out for COC(=O)c1ccc2c(c1)NC(=O)CS2 ?
output: false

---

# Lookup of reported inhibition keyed by entry
target.or.test.system: Mannose-6-phosphate isomerase (Homo sapiens) (UniProt P34949)
assay.text: MPI inhibition at elevated mannose 6-phosphate – biochemical, fluorescence intensity, high mannose 6-phosphate, primary screen (AID 1220)
run.parameters: recombinant PMI enzyme, coupled fluorescence intensity; at 20 µM; hits give high values
Hit rate of the full screen: of about 190,000 compounds, about 1,300 (0.68%) were called active. The sample holds actives, similar compounds and a random draw of the others, so the mix is not that of the screen.
Provide the reading as a plain figure in %.

>>> quantitative_result("COc1ccccc1C(=O)OCC(=O)Nc1ccc(Cl)cn1")
6.1

input: Could you please provide reported inhibition for CN(C)c1ccc(C(CNS(=O)(=O)c2ccc3ccccc3c2)c2c[nH]c3ccccc23)cc1 (stereo unspecified) ? Thanks!
output: 13.6

input: Could you please provide reported inhibition for Cc1cc2cc(CCNC(=O)c3cccc([N+](=O)[O-])c3)c(=O)[nH]c2cc1C ? Thanks!
output: -2.2

input: Could you please provide reported inhibition for CCN(CC)c1ccc2c(C)c(Cl)c(=O)oc2c1 ? Thanks!
output: -1.9

input: Could you please provide reported inhibition for CCOC(=O)N1CCC(N(CCN(C)C)C(=S)Nc2cccc(Cl)c2)CC1 ? Thanks!
output: 10.6

input: Could you please provide reported inhibition for CCN(CC)c1ccc2ccc(=O)oc2c1 ? Thanks!
output: 3.8
